pest or weed control at 50 ppm for assorted compounds
tested on: Alternaria solani; assay: Test F: tomato early blight, preventive spray on tomato seedlings; assay type: in vivo; settings: 120 h, 50 ppm, 100 = 100% disease control, 0 = no control, read-out: Test F disease control rating
Express the result in % but write the number alone.

INSERT INTO results (mol_smiles, value_reported) VALUES
  ('Cc1nn(C)c(Nc2ccc(F)cc2[N+](=O)[O-])c1-c1ccc(F)cc1Cl', 93),
  ('Cc1nn(C)c(N(C)c2c(F)cccc2[N+](=O)[O-])c1-c1ccc(F)cc1Cl', 40),
  ('Cc1nn(C)c(Nc2c(F)cccc2[N+](=O)[O-])c1-c1ccc(F)cc1Cl', 100),
  ('Cc1nn(C)c(Nc2c(F)cc(Cl)cc2[N+](=O)[O-])c1-c1ccc(F)cc1Cl', 100),
  ('COc1cc(F)c(Nc2c(-c3ccc(F)cc3F)c(C)nn2C)c([N+](=O)[O-])c1', 100),
  ('Cc1nn(C)c(Nc2c(Cl)cc(F)cc2[N+](=O)[O-])c1-c1ccc(F)cc1Cl', 99),
  ('Cc1nn(C)c(Nc2c(F)cc(Br)cc2[N+](=O)[O-])c1-c1ccc(F)cc1Cl', 99),
  ('Cc1cc(F)c(Nc2c(-c3ccc(F)cc3Cl)c(C)nn2C)c([N+](=O)[O-])c1', 99);

Lookup: Any idea what pest or weed control at 50 ppm was measured for Cc1nn(C)c(Nc2c(F)cccc2[N+](=O)[O-])c1-c1c(F)cc(F)cc1Cl ?
Found: 99

Lookup: Any idea what pest or weed control at 50 ppm was measured for COc1ccc(-c2c(C)nn(C)c2Nc2c(Cl)cc(F)cc2[N+](=O)[O-])c(Cl)c1 ?
Found: 97

Lookup: Any idea what pest or weed control at 50 ppm was measured for Cc1nn(C)c(Nc2c(F)cccc2[N+](=O)[O-])c1-c1ccc(C#N)cc1Cl ?
Found: 99

----------
system: Septoria tritici; assay: Test A: wheat leaf blotch, preventive spray on wheat seedlings; type: in vivo; conditions: 50 ppm, 100 = 100% disease control, 0 = no control
Test A disease control rating for assorted compounds

Consider the reported Test A disease control rating for these compounds:
INSERT INTO assay_data (mol_smiles, value_reported) VALUES
  ('Cc1nn(C)c(Nc2c(F)cc(Br)cc2[N+](=O)[O-])c1-c1ccc(F)cc1Br', '100%'),
  ('Cc1nn(C)c(Nc2ccc(OCC#N)cc2[N+](=O)[O-])c1-c1ccc(F)cc1Cl', '97%'),
  ('Cc1nn(C)c(Nc2cc(F)ccc2[N+](=O)[O-])c1-c1ccc(F)cc1Cl', '100%'),
  ('Cc1nn(C)c(Nc2ccc(F)cc2[N+](=O)[O-])c1-c1c(Cl)cccc1Cl', '100%'),
  ('Cc1nn(C)c(Nc2c(F)cc(Br)cc2[N+](=O)[O-])c1-c1ccc(F)cc1F', '100%');

Lookup: Any idea what Test A disease control rating was measured for Cc1nn(C)c(Nc2c(Cl)cc(Cl)cc2[N+](=O)[O-])c1-c1c(F)cccc1F ?
Found: 100%

----------
Test A disease control rating for assorted compounds
test system: Septoria tritici; experiment: Test A: wheat leaf blotch, preventive spray on wheat seedlings; format: in vivo; conditions: 50 ppm, 100 = 100% disease control, 0 = no control
Express the result in % but write the number alone.

INSERT INTO assay_data (mol_smiles, outcome_measure, value_reported) VALUES
  ('Cc1nn(C)c(Nc2c(Cl)cc(Cl)cc2[N+](=O)[O-])c1-c1ccc(C#N)cc1Cl', 'Test A disease control rating', 99),
  ('Cc1nn(C)c(Nc2c(Cl)cccc2[N+](=O)[O-])c1-c1c(F)cc(F)cc1Br', 'Test A disease control rating', 99),
  ('Cc1nn(C)c(Nc2c(Br)cccc2[N+](=O)[O-])c1-c1ccc(F)cc1Cl', 'Test A disease control rating', 100),
  ('Cc1nn(C)c(Nc2c(Cl)cccc2[N+](=O)[O-])c1-c1ccc(C#N)cc1Cl', 'Test A disease control rating', 100),
  ('CCc1nn(C)c(Nc2c(F)cc(C)cc2[N+](=O)[O-])c1-c1ccc(F)cc1Cl', 'Test A disease control rating', 100);

// below: Test A disease control rating requested for another compound
Lookup: Any idea what Test A disease control rating was measured for CCc1nn(C)c(Nc2c(Cl)cc(C)cc2[N+](=O)[O-])c1-c1ccc(F)cc1F ?
Found: 100

----------
system: Septoria tritici; test: Test A: wheat leaf blotch, preventive spray on wheat seedlings; type: in vivo; details: 50 ppm, 100 = 100% disease control, 0 = no control
Test A disease control rating for assorted compounds
Express the result in % but write the number alone.

INSERT INTO assay_data (compound, outcome_measure, value_reported) VALUES
  ('COc1ccc(-c2c(C)nn(C)c2Nc2ccccc2[N+](=O)[O-])c(Cl)c1 [compound 140]', 'Test A disease control rating', 99),
  ('Cc1nn(C)c(Nc2ccc(F)cc2[N+](=O)[O-])c1-c1ccc(F)cc1Br [compound 20]', 'Test A disease control rating', 100);

Lookup: Any idea what Test A disease control rating was measured for Cc1cc(F)c(Nc2c(-c3c(F)cccc3Cl)c(C)nn2C)c([N+](=O)[O-])c1 [compound 201] ?
Found: 100

Lookup: Any idea what Test A disease control rating was measured for COc1cc(F)c(-c2c(C)nn(C)c2Nc2ccc(F)cc2[N+](=O)[O-])c(F)c1 [compound 83] ?
Found: 99

Lookup: Any idea what Test A disease control rating was measured for COc1ccc(-c2c(C)nn(C)c2Nc2c(F)cc(OC)cc2[N+](=O)[O-])c(Cl)c1 [compound 186] ?
Found: 100

Lookup: Any idea what Test A disease control rating was measured for Cc1cc(F)c(Nc2c(-c3c(F)cc(C#N)cc3F)c(C)nn2C)c([N+](=O)[O-])c1 [compound 200] ?
Found: 99

Lookup: Any idea what Test A disease control rating was measured for COc1cc(F)c(-c2c(C)nn(C)c2Nc2c(F)cc(F)cc2[N+](=O)[O-])c(F)c1 [compound 84] ?
Found: 100

Lookup: Any idea what Test A disease control rating was measured for Cc1nn(C)c(Nc2c([N+](=O)[O-])ccc(F)c2F)c1-c1ccc(F)cc1Cl [compound 7] ?
Found: 100

Lookup: Any idea what Test A disease control rating was measured for Cc1cccc([N+](=O)[O-])c1Nc1c(-c2ccc(F)cc2F)c(C)nn1C [compound 177] ?
Found: 100

----------
Test A disease control rating for assorted compounds
Tested on: Septoria tritici
Assay: Test A: wheat leaf blotch, preventive spray on wheat seedlings
Format: in vivo
Conditions: 50 ppm, 100 = 100% disease control, 0 = no control
Description: General protocol for preparing test suspensions for Tests A-F: the test compounds were first dissolved in acetone in an amount equal to 3% of the final volume and then suspended at the desired concentration (in ppm) in acetone and purified water (50/50 mix by volume) containing 250 ppm of the surfactant PEG400 (polyhydric alcohol esters). The resulting test suspensions were then used in Tests A-F. The test solution was sprayed to the point of run-off on wheat seedlings. […]
Express the result in % but write the number alone.

INSERT INTO measurements (compound, value_reported) VALUES
  ('Cc1nn(C)c(Nc2c(F)cc(F)cc2[N+](=O)[O-])c1-c1ccc(Cl)cc1F [compound 13]', 100),
  ('COc1cc(F)c(-c2c(C)nn(C)c2Nc2ccccc2[N+](=O)[O-])c(F)c1 [compound 147]', 96),
  ('Cc1cc(F)c(Nc2c(-c3ccc(C#N)cc3F)c(C)nn2C)c([N+](=O)[O-])c1 [compound 198]', 99),
  ('Cc1nn(C)c(Nc2c(Cl)cc(Cl)cc2[N+](=O)[O-])c1-c1ccc(F)cc1Cl [compound 59]', 100),
  ('CCc1nn(C)c(Nc2c(Cl)cccc2[N+](=O)[O-])c1-c1ccc(F)cc1F [compound 17]', 100),
  ('Cn1nc(C#N)c(-c2ccc(F)cc2Cl)c1Nc1c(F)cccc1[N+](=O)[O-] [compound 122]', 100),
  ('Cc1cccc([N+](=O)[O-])c1Nc1c(-c2ccc(F)cc2Br)c(C)nn1C [compound 42]', 100),
  ('COc1ccc(Nc2c(-c3ccc(C#N)cc3F)c(C)nn2C)c([N+](=O)[O-])c1 [compound 179]', 100),
  ('Cc1cccc([N+](=O)[O-])c1Nc1c(-c2c(F)cc(F)cc2F)c(C)nn1C [compound 167]', 100),
  ('COc1cc(F)c(-c2c(C)nn(C)c2Nc2c(Cl)cccc2[N+](=O)[O-])c(F)c1 [compound 160]', 98);

Lookup: Any idea what Test A disease control rating was measured for Cc1nn(C)c(Nc2cccc(Cl)c2[N+](=O)[O-])c1-c1c(F)cccc1F [compound 99] ?
Found: 99

Lookup: Any idea what Test A disease control rating was measured for Cc1nn(C)c(Nc2ccccc2[N+](=O)[O-])c1-c1ccc(C#N)cc1F [compound 134] ?
Found: 100

Lookup: Any idea what Test A disease control rating was measured for Cc1nn(C)c(Nc2c(F)cc(Br)cc2[N+](=O)[O-])c1-c1ccc(Cl)cc1Cl [compound 132] ?
Found: 100

Lookup: Any idea what Test A disease control rating was measured for COc1ccc(Nc2c(-c3c(F)cc(F)cc3F)c(C)nn2C)c([N+](=O)[O-])c1 [compound 159] ?
Found: 100
